Sourced from PubChem BioAssay (NCI)

system: RXF 393 renal; experiment: NCI tumour cell line growth inhibition, 48 h
Examples of compounds with documented GI50 follow.
MEASURED PARAMETER: GI50

> print(dat)
                                  structure    test.system   result
1  CCN(CC)CCOc1ccc2c(c1)C(=O)c1cc(OCCN(CC)CC)ccc1-2  RXF 393 renal  10.2 µM
2  COc1ccc(C(=O)COc2cccc(/C=C3\CSc4ccc(Cl)cc4C3=O)c2)cc1  RXF 393 renal  1.14 µM
3       CC(=O)/C=C/C1=C(c2cccs2)c2ccccc2CC1  RXF 393 renal  31.8 µM
4  COc1cc2cc(Oc3ccc(NC(=O)Nc4ccc(Cl)c(C(F)(F)F)c4)cc3)c(C)nc2cc1OC  RXF 393 renal  1.33 µM
5  CN1CCN(c2ccc(NC3=C(Cl)C(=O)c4ncccc4C3=O)cc2C#N)CC1  RXF 393 renal   1.4 µM

* * *

tested on: UACC-62 melanoma; assay: NCI tumour cell line growth inhibition, 48 h
Examples of molecules with documented TGI follow.
MEASURED PARAMETER: TGI (µM)

> print(dat)
                                    molecule  measured.parameter  unit.descriptor  qualifier.sign  readout.number
 1  CCCC(=O)OCC1OC(n2cc(F)c(=O)[nH]c2=O)C(F)C1OC(=O)CCC (stereo not drawn)                 TGI               µM               >             100
 2  CC1SC(c2c(Cl)cccc2Cl)N(NC(=O)C(O)c2ccccc2)C1=O (stereo not drawn)                 TGI               µM               >             100
 3  COc1cc(/C=C2\CN(S(=O)(=O)c3ccccc3)C/C(=C\c3cc(CN4CCCCC4)c(O)c(OC)c3)C2=O)cc(CN2CCCCC2)c1O                 TGI               µM               =            3.44
 4  CO[C@@]12C[C@H]3[C@@H]([C@@H](O)[C@@H](OC(=O)/C=C/c4ccccc4)[C@@]4(O)C(C)(C)CCC[C@]34C)[C@@H](C)C1=CC(=O)O2                 TGI               µM               =            5.62
 5  CN1CCN(CCNc2ccc(CO)c3sc4ccccc4c(=O)c23)CC1                 TGI               µM               =            9.93
 6  COc1ccc(NC(=O)CC(=O)N/N=C/c2ccc(N(CCC#N)S(=O)(=O)c3ccccc3)cc2)cc1                 TGI               µM               >             100
 7  COc1cc(C2=NN(c3ccc(S(N)(=O)=O)cc3)C(c3ccc(Cl)cc3)C2)cc(OC)c1OC (stereo not drawn)                 TGI               µM               >             100
 8                  O=C1CCCCC(=O)Nc2ccccc2N1                 TGI               µM               >             100
 9  O=C(O)c1cc(O)c2c(c1)C([C@@H]1c3cccc(O)c3C(=O)c3c(O)cc(C(=O)O)cc31)c1cccc(O)c1C2=O (stereo partly drawn)                 TGI               µM               =            78.6
10  COC1C(O)C(C)OC(OC2CC3CCC4C(CCC5(C)C(C6=CC(=O)OC6)CCC45O)C3(O)C(OC(C)=O)C2)C1O (stereo not drawn)                 TGI               µM               =            5.92
11  NC(=S)N/N=c1\cc(C(=O)Nc2ccc([N+](=O)[O-])cc2[N+](=O)[O-])oc2ccccc12                 TGI               µM               >             100
12  C=CCC(N[C@H](CO)c1ccccc1)c1cn(S(=O)(=O)c2ccc(C)cc2)c2ccccc12 (stereo partly drawn)                 TGI               µM               =            29.7
13  CC(=O)OC1CCC2(C)C(=CCC3C4CCC5(OC6CC(C)CN(C(C)=O)C6C5C)C(C)=C4C(=O)C32)C1 (stereo not drawn)                 TGI               µM               =            18.5
14  O=c1c2ccccc2[nH]c(=S)n1-c1ccc(N=Nc2cccc3cc(O)ccc23)cc1                 TGI               µM               >             100
15  O=S(=O)(O)c1cc(N=Nc2cc(S(=O)(=O)O)c3cccnc3c2O)ccc1/C=C/c1ccc(N=Nc2cc(S(=O)(=O)O)c3cccnc3c2O)cc1S(=O)(=O)O                 TGI               µM               >             100
16  CCOC(=O)N[C@H]1CCc2c(Br)c(OC)c(OC)c(OC)c2-c2ccc(SC)c(=O)cc21                 TGI               µM               =            14.2
17                   CCOc1ccc2ccc3cccnc3c2n1                 TGI               µM               =            75.9
18        O=C(O)Cn1c(=O)[nH]c(=O)c2[nH]cnc21                 TGI               µM               >             100
